Reference for the values: patent US20260125375A1

Target: CBL-B (residues 36-427) (Homo sapiens, UniProt Q13191)
Construct: Purified CBL-B (residues 36-427) and C-CBL (residues 46-435) proteins from baculovirus-infected insect cells; made in house; host or cells: baculovirus-infected insect cells
Assay: Ligand Displacement Assay (LDA), HTRF competitive binding against BODIPY-labeled fluorescent tracer, CBL-B
Settings: geometric mean of the number of tests, read-out: CBL-B Ki (nM) GMean
Condition met if Ki is below 6 nM. Condition not met if not; exact matches included in Condition not met.

Molecule: C[C@@H](N[C@@H]1CCC[C@@H]1O)c1nc(C(F)(F)F)cc2c(-c3cccc([C@H](c4nncn4C)C4CCC4)c3)n[nH]c12 (single isomer, unassigned)
Class: Condition met
--
Molecule: C[C@H](O)C(=O)N[C@@H](C)c1nc(C(F)(F)F)cc2c(-c3cccc([C@H](c4nncn4C)C4CCC4)c3)n[nH]c12 (single isomer, unassigned)
Class: Condition met
--
Molecule: C[C@@H](c1nc(C(F)(F)F)cc2c(-c3cccc(C4(Cc5nncn5C)COC4)c3)n[nH]c12)N1C[C@H](F)[C@@H](F)C1 (single isomer, unassigned)
Class: Condition not met
--
Molecule: CC(NC1CC(F)(F)C1)c1nc(C(F)(F)F)cc2c(-c3cccc(C4(Cc5nncn5C)COC4)c3)n[nH]c12 (single isomer, unassigned) [Example C94]
Class: Condition met
--
Molecule: C[C@@H](c1nc(C(F)(F)F)cc2c(-c3cccc([C@H](c4nncn4C)C4CCC4)c3)n[nH]c12)N1CC[C@@H](O)C1 (single isomer, unassigned)
Class: Condition not met
--
Molecule: CC(O)CNC(C)c1nc(C2CC2)cc2c(-c3cccc(C(c4nncn4C)C4CCC4)c3)n[nH]c12 (single isomer, unassigned) [Example H2]
Class: Condition met
--
Molecule: C[C@@H](N)c1nc(C(F)(F)F)cc2c(-c3cccc([C@H](c4nncn4C)C4CCC4)c3)n[nH]c12
Class: Condition not met
--
Molecule: Cn1cnnc1[C@@H](c1cccc(-c2n[nH]c3ncc(C(F)(F)F)cc23)c1)C1CCC1
Class: Condition not met
--
Molecule: C[C@@H]1CN([C@@H](C)c2nc(C(F)(F)F)cc3c(-c4cccc(C5(Cc6nncn6C)COC5)c4)n[nH]c23)CCO1 (single isomer, unassigned)
Class: Condition not met
--
Molecule: Cn1cnnc1[C@@H](c1cccc(-c2n[nH]c3c(CN[C@@H]4CC[C@H](O)C4)nc(C(F)(F)F)cc23)c1)C1CCC1
Class: Condition not met
--
Molecule: Cn1cnnc1[C@@H](c1cccc(-c2n[nH]c3c(C4CCCN4)nc(C(F)(F)F)cc23)c1)C1CCC1 (single isomer, unassigned) [Example L3]
Class: Condition not met

---

Molecular target: C-CBL (residues 46-435) (Homo sapiens, UniProt P22681)
Construct: Purified CBL-B (residues 36-427) and C-CBL (residues 46-435) proteins from baculovirus-infected insect cells; made in house; host or cells: baculovirus-infected insect cells
Assay: Ligand Displacement Assay (LDA), HTRF competitive binding against BODIPY-labeled fluorescent tracer, C-CBL
Settings: geometric mean of the number of tests, read-out: C-CBL Ki (nM) GMean

Molecule: C[C@H]1CCCN(Cc2nc(C(F)(F)F)cc3c(-c4cccc(C5(Cc6nncn6C)COC5)c4)n[nH]c23)C1
Ki: 23.4 nM

Molecule: C[C@H](c1nc(C(F)(F)F)cc2c(-c3cccc(C4(Cc5nncn5C)COC4)c3)n[nH]c12)N1CC(F)(F)C1 (single isomer, unassigned)
Ki: 250 nM

Molecule: Cn1cnnc1CC1(c2cccc(-c3n[nH]c4c(CNC5CCC5)nc(C(F)(F)F)cc34)c2)COC1
Ki: 96.3 nM

---

Molecular target: CBL-B (residues 36-427) (Homo sapiens)
Construct: Purified CBL-B (residues 36-427) and C-CBL (residues 46-435) proteins from baculovirus-infected insect cells; made in house; host or cells: baculovirus-infected insect cells
Experiment: Ligand Displacement Assay (LDA), HTRF competitive binding against BODIPY-labeled fluorescent tracer, CBL-B
Conditions: geometric mean of the number of tests, read-out: CBL-B Ki (nM) GMean
Recorded Ki, one value per entry.

Compound: C[C@@H](c1nc(C(F)(F)F)cc2c(-c3cccc(C4(Cc5nncn5C)COC4)c3)n[nH]c12)N1CCCC1 (single isomer, unassigned) [Example D47]
Ki: 36.9 nM
--
Compound: C[C@H](N[C@@H]1COC[C@H]1O)c1nc(C(F)(F)F)cc2c(-c3cccc([C@H](c4nncn4C)C4CCC4)c3)n[nH]c12 (single isomer, unassigned) [Example D59]
Ki: 2.6 nM
--
Compound: CN(C)c1nc(C(F)(F)F)cc2c(-c3cccc(C4(Cc5nncn5C)COC4)c3)n[nH]c12 [Example J9]
Ki: 92.2 nM
--
Compound: C[C@H](N[C@@H]1CCC(F)(F)C1)c1nc(C(F)(F)F)cc2c(-c3cccc(C4(Cc5nncn5C)COC4)c3)n[nH]c12 (single isomer, unassigned) [Example C17]
Ki: 4 nM
--
Compound: C[C@@H](N[C@H]1CCC[C@@H]1O)c1nc(C(F)(F)F)cc2c(-c3cccc([C@H](c4nncn4C)C4CCC4)c3)n[nH]c12 (single isomer, unassigned) [Example C46]
Ki: 9.4 nM

---

Molecular target: C-CBL (residues 46-435) (Homo sapiens, UniProt P22681)
Construct: Purified CBL-B (residues 36-427) and C-CBL (residues 46-435) proteins from baculovirus-infected insect cells; made in house; host or cells: baculovirus-infected insect cells
Experiment: Ligand Displacement Assay (LDA), HTRF competitive binding against BODIPY-labeled fluorescent tracer, C-CBL
Conditions: geometric mean of the number of tests, read-out: C-CBL Ki (nM) GMean
The label class 1 is reserved for Ki strictly under 50 nM; class 0 covers values equal to or above it.

Molecule: C[C@H]1CCCN(Cc2nc(C(F)(F)F)cc3c(-c4cccc([C@H](c5nncn5C)C5CCC5)c4)n[nH]c23)C1
Class: class 0

Molecule: C[C@H](N[C@@H]1CCC[C@@H]1O)c1nc(C(F)(F)F)cc2c(-c3cccc([C@H](c4nncn4C)C4CCC4)c3)n[nH]c12 (single isomer, unassigned)
Class: class 1

Molecule: CC(C)NCc1nc(C(F)(F)F)cc2c(-c3cccc(C4(Cc5nncn5C)COC4)c3)n[nH]c12
Class: class 0

Molecule: CN1CC[C@H](N(C)c2nc(C(F)(F)F)cc3c(-c4cccc([C@H](c5nncn5C)C5CCC5)c4)n[nH]c23)C1
Class: class 0

Molecule: C[C@@H](c1nc(C(F)(F)F)cc2c(-c3cccc(C4(Cc5nncn5C)COC4)c3)n[nH]c12)N1CCNCC1 (single isomer, unassigned)
Class: class 1

Molecule: C[C@H](c1nc(C(F)(F)F)cc2c(-c3cccc(C4(Cc5nncn5C)COC4)c3)n[nH]c12)N1C[C@@H](F)[C@H](F)C1 (single isomer, unassigned)
Class: class 0
